System: Yap1 mRNA
Experiment: Antisense inhibition of human Yap1 in A-431 cells by cEt gapmers, single dose (Example 3, RTS36584)
Assay type: cell-based
Details: Table 28; Yap1 mRNA as percent of untreated control; 3-10-3 cEt gapmers targeting SEQ ID NO.: 1, and 2
Protocol: Modified oligonucleotides were designed to target a Yap1 nucleic acid and were tested for their effect on Yap1 mRNA level in vitro. The modified oligonucleotides were tested in a series of experiments that had similar culture conditions. […] After a treatment period of approximately 48 hours, RNA was isolated from the cells and Yap1 mRNA levels were measured by quantitative real-time RTPCR. […] Yap1 mRNA levels were normalized to total RNA content, as measured by RIBOGREEN®. […]
Strand notation (5' to 3'): a small letter for the sugar, then the base; units joined by * are phosphorothioate-linked, units joined directly phosphodiester-linked; [ ] holds rarer units or linkages, { } end groups; capitals alone tell only the bases. k = constrained ethyl (cEt); [5mC] = 5-methylcytosine; d = 2'-deoxy (DNA)
Exercise: for every item that follows, state its recorded YAP1 (% UTC).
Field format: number, assumed % UTC, no unit text.

Request: Using the record for 1075150 (kA*kG*k[5mC]*dG*dG*dA*dA*dA*dA*dA*dA*d[5mC]*dA*k[5mC]*k[5mC]*kT; antisense) [compound 1075150] , report its YAP1 (% UTC).
Response: 35

Request: Could you tell me which YAP1 (% UTC) is on file for 1076110 (k[5mC]*kT*kT*dT*dA*d[5mC]*d[5mC]*dT*dA*dA*dA*dT*dG*kT*kT*kG; antisense) [compound 1076110] ?
Response: 53

Request: Any idea what its YAP1 (% UTC) is? The substance is 1075118 (k[5mC]*kT*kA*dT*dT*dT*dA*d[5mC]*dT*d[5mC]*dT*dG*dT*k[5mC]*kA*k[5mC]; antisense) [compound 1075118]
Response: 4

Request: # input substance: 1076206 (k[5mC]*kA*kA*dT*dA*dA*dA*d[5mC]*dT*dT*dA*d[5mC]*d[5mC]*k[5mC]*kT*kT; antisense) [compound 1076206] ; wanted: its YAP1 (% UTC)
Response: 55

Request: Please report the recorded YAP1 (% UTC) for 1075982 (k[5mC]*kA*kT*dG*dA*dA*dA*dG*d[5mC]*dA*dA*dT*dA*kT*k[5mC]*k[5mC]; antisense) [compound 1075982] .
Response: 23

Request: What value of measured YAP1 (% UTC) is listed for 1074382 (kA*kG*kG*dT*dA*dG*dT*d[5mC]*dT*dG*dG*dG*dA*kA*kA*k[5mC]; antisense) [compound 1074382] ?
Response: 8

Request: What does the record list as YAP1 (% UTC) for 1075790 (kT*k[5mC]*kA*dG*dA*dA*dG*dA*dA*d[5mC]*dT*d[5mC]*d[5mC]*k[5mC]*kA*kT; antisense) [compound 1075790] ?
Response: 14

Request: Given the substance 1076238 (kG*kA*kT*dG*dA*dA*dT*dA*dG*d[5mC]*dT*dA*dA*kG*kA*kA; antisense) [compound 1076238] , what is its reported YAP1 (% UTC)?
Response: 30

Request: Could you share which YAP1 (% UTC) value was measured for 1075246 (kG*kA*kT*dA*dA*d[5mC]*dT*dA*dG*dT*dA*dA*d[5mC]*k[5mC]*kG*kT; antisense) [compound 1075246] ?
Response: 6

Request: Item under review: 1075822 (k[5mC]*kT*kT*dA*dG*dT*dA*dA*dT*dT*dG*d[5mC]*d[5mC]*k[5mC]*kA*kT; antisense) [compound 1075822] . Reported YAP1 (% UTC)?
Response: 35

Request: Given 1075886 (antisense k[5mC]*kA*kT*dA*dA*d[5mC]*dA*d[5mC]*dT*dG*dA*dA*dG*kG*kT*kG) [compound 1075886] , state its recorded YAP1 (% UTC).
Response: 60

Request: Fill in the blank: the reported YAP1 (% UTC) of 1076302 (kA*kA*kT*dA*dA*dG*d[5mC]*d[5mC]*dT*d[5mC]*dA*d[5mC]*d[5mC]*kT*kT*kT; antisense) [compound 1076302] is ____.
Response: 74
